System: A498 renal
Experiment: NCI tumour cell line growth inhibition, 48 h
Listed below: TGI values for each entry.
Field: numeric (µM). Do not append units.

Specify measured TGI for Oc1ccc([Te]CCNCC[Te]c2ccc(O)cc2)cc1 .
46.6

Determine its reported TGI: CC1(C)CC(O)C2=C(O1)C(=O)c1ncccc1C2=O (configuration not stated)
18.6

State, in one line, measured TGI of O=C(COc1ccc(/C=C2\COc3ccccc3C2=O)cc1)Nc1nccs1
33.7

Read the entry CC[C@H]1CN2CCc3cc(OC)c(OC)cc3C2C[C@@H]1CC1NCCc2cc(OC)c(OC)cc21 (some centres not stated) and write its reported TGI.
0.313
